Numbers sourced from a polymer gas permeability compilation.

Assay Readout: H2 permeability (Barrer)

Example compounds with recorded H2 permeability:
*Cc1ccc(C*)c(Cl)c1 (repeat unit); 0.931
*c1c(C)cc(-c2cc(C)c(N3C(=O)c4cc5c(cc4C3=O)C3(CC(C)(C)c4cc6c(cc43)C(=O)N(*)C6=O)CC5(C)C)c3ccccc23)c2ccccc12 (repeat unit); 1620
*=CC1CCC(C=*)C1 (repeat unit); 21
*CN1CN(*)c2cc3c(cc21)C1(C(C)C)c2ccccc2C3(C(C)C)c2cc(*)c(*)cc21 (repeat unit); 4740
*C(=C(*)c1ccc(C(C)(C)C)cc1)c1ccc(O)cc1 (repeat unit); 340

(1) *Oc1ccc(Oc2cccc(*)c2C#N)c(-c2cccc(C)c2)c1 (repeat unit)
(2) *c1ccc(Oc2ccc(C(=O)c3ccc(Oc4ccc(C(*)(c5ccccc5)C(F)(F)F)cc4)cc3)cc2)cc1 (repeat unit)
// compare measured H2 permeability between 1 and 2 ; output the lower one Refer to your chosen item by its label in the answer.
1

(1) *C(=C(*)c1ccc2c(c1)Cc1ccccc1-2)c1ccc([Si](C)(C)C)cc1 (repeat unit)
(2) *Oc1ccc(C2(c3ccc(Oc4ccc(S(=O)(=O)c5ccc(*)cc5)cc4)cc3)C3CC4CC(C3)CC2C4)cc1 (repeat unit)
// compare measured H2 permeability between 1 and 2 ; output the lower one Refer to your chosen item by its label in the answer.
2
(2: 17.3 Barrer, 1: 3100 Barrer)

---

Assay Readout: O2 permeability (Barrer)

Example compounds with recorded O2 permeability:
*NC(=O)c1ccc(C(c2ccc(C(=O)Nc3c(C)cc4c(c3C)C3c5ccccc5C4c4cc(C)c(*)c(C)c43)cc2)(C(F)(F)F)C(F)(F)F)cc1 (repeat unit); 27.5
*Oc1cc2c(cc1O*)C1(c3cc(C)c(C)cc3-2)c2cc(C)c(C)cc2-c2cc3c(cc21)Oc1c(C#N)c(*)c(*)c(C#N)c1O3 (repeat unit); 2360
*Oc1ccc(C(c2ccc(OC(=O)c3ccc(C(*)=O)cc3)cc2)(C(F)(F)F)C(F)(F)F)cc1 (repeat unit); 11.8

(A) *c1c(C)cc(C)c(N2C(=O)c3ccc(C(=O)c4ccc5c(c4)C(=O)N(*)C5=O)cc3C2=O)c1C (repeat unit)
(B) *Oc1ccc(C(=O)c2cccc(-c3cccc(C(=O)c4ccc(Oc5ccc(C(c6ccc(*)cc6)(C(F)(F)F)C(F)(F)F)cc5)cc4)c3)c2)cc1 (repeat unit)
(C) *Nc1ccc(Oc2c(F)c(F)c(Oc3ccc(NC(=O)CN4C(=O)c5ccc(C(*)=O)cc5C4=O)cc3)c(F)c2F)cc1 (repeat unit)
List the 3 entries from lowest O2 permeability to highest O2 permeability value. List each label, following the requested order.
C, B, A

(a) *Oc1ccc(Oc2cccc(*)c2C#N)c(-c2cccc(C)c2)c1 (repeat unit)
(b) *c1ccc(N2C(=O)c3ccc(C(c4ccc5c(c4)C(=O)N(*)C5=O)(C(F)(F)F)C(F)(F)F)cc3C2=O)cc1 (repeat unit)
// compare measured O2 permeability between a and b ; output the lower one Refer to your chosen item by its label in the answer.
a
(a: 0.45 Barrer, b: 12.7 Barrer)

(1) *OC(=O)c1ccc(C(=O)Oc2c(C)cc(C(C)(C)c3cc(C)c(O*)c(C)c3)cc2C)cc1 (repeat unit)
(2) *OC(=O)c1ccc(C(=O)Oc2ccc(C3(c4ccc(O*)c(C)c4)OC(=O)c4ccccc43)cc2C)cc1 (repeat unit)
// compare measured O2 permeability between 1 and 2 ; output the lower one Refer to your chosen item by its label in the answer.
2
(2: 1.04 Barrer, 1: 7.3 Barrer)

(1) *Oc1ccc(S(=O)(=O)c2ccc(Oc3c(C)cc(C(C)(C)c4cc(C)c(*)c(C)c4)cc3C)cc2)cc1 (repeat unit)
(2) *Oc1ccc(C2(c3ccc(OC(=O)c4cccc(C(*)=O)c4)cc3)OC(=O)c3ccccc32)cc1 (repeat unit)
I need your help: which of the pair 1 , 2 has higher O2 permeability? Refer to your chosen item by its label in the answer.
1

---

Assay Readout: N2 permeability (Barrer)

*c1cc(C(=O)OCCC(F)(F)C(F)(F)C(F)(F)C(F)(F)C(F)(F)C(F)(F)F)cc(N2C(=O)c3ccc(Oc4ccc5c(c4)C(=O)N(*)C5=O)cc3C2=O)c1 (repeat unit); 0.56
*CC(*)(C)C(=O)OCCOCC (repeat unit); 0.385

(a) *C(=C(*)c1ccc(O[Si](C)(C)C(C)(C)C)cc1)c1ccc(F)cc1 (repeat unit)
(b) *Oc1ccc(S(=O)(=O)c2ccc(Oc3cccc4c(*)cccc34)cc2)cc1 (repeat unit)
(c) *C(=C(*)c1ccc2c(c1)C(C)(C)C(C)(C)C2(C)C)c1ccccc1 (repeat unit)
(d) *C(=C(*)c1cccc(O[Si](C)(C)C(C)(C)C)c1)c1ccc(C(C)(C)C)cc1 (repeat unit)
(e) *c1ccc(Cc2ccc(N3C(=O)c4ccc(C(=O)Oc5ccc(C(c6ccc(OC(=O)c7ccc8c(c7)C(=O)N(*)C8=O)cc6)(C(F)(F)F)C(F)(F)F)cc5)cc4C3=O)cc2)cc1 (repeat unit)
List the 5 entries from lowest N2 permeability to highest N2 permeability value. List each label, following the requested order.
b, e, a, d, c

---

Assay Readout: O2 permeability (Barrer)

Example compounds with recorded O2 permeability:
*c1ccc2c(c1)C1(CC2(C)C)CC(C)(C)c2ccc(N3C(=O)c4cc5c(cc4C3=O)C3(CC(C)(C)c4cc6c(cc43)C(=O)N(*)C6=O)CC5(C)C)cc21 (repeat unit); 208
*Oc1ccc(C2(c3ccc(Oc4ccc(S(=O)(=O)c5ccc(*)cc5)cc4)cc3)OC(=O)c3ccccc32)cc1 (repeat unit); 1.2
*c1ccc(C(c2ccc(-n3c(=O)c4cc5c(=O)n(*)c(=O)c5cc4c3=O)cc2)(C(F)(F)F)C(F)(F)F)cc1 (repeat unit); 7.1

(a) *c1ccc2c(-c3c(OC(C)=O)ccc4cc(N5C(=O)c6ccc(C(c7ccc8c(c7)C(=O)N(*)C8=O)(C(F)(F)F)C(F)(F)F)cc6C5=O)ccc34)c(OC(C)=O)ccc2c1 (repeat unit)
(b) *c1ccc(C(c2ccc(N3C(=O)c4ccc(Oc5cc(C)c(Oc6ccc7c(c6)C(=O)N(*)C7=O)c(C)c5C)cc4C3=O)cc2)(C(F)(F)F)C(F)(F)F)cc1 (repeat unit)
(c) *c1c(C)c(C)c(N2C(=O)c3ccc(Oc4cc(C)c(Oc5ccc6c(c5)C(=O)N(*)C6=O)c(C)c4C)cc3C2=O)c(C)c1C (repeat unit)
Task field, ranking: reported O2 permeability, descending order. List each label, following the requested order.
c, b, a
(c: 33 Barrer, b: 9.3 Barrer, a: 1.19 Barrer)

---

Assay Readout: H2 permeability (Barrer)

*c1ccc(C(c2ccc(-n3c(=O)c4cc5oc6cc7c(cc6oc5cc4c3=O)C3(CC(C)(C)c4cc5oc6cc8c(=O)n(*)c(=O)c8cc6oc5cc43)CC7(C)C)cc2)(C(F)(F)F)C(F)(F)F)cc1 (repeat unit); 360
*C(=C(*)c1ccc([Si](C)(C)C)cc1)c1ccc(O[Si](C)(C)C(C)(C)C)cc1 (repeat unit); 1500
*c1c(C)cc(-c2cc(C)c(-n3c(=O)c4cc5oc6cc7c(cc6oc5cc4c3=O)C3(C)CCC7(C)c4cc5oc6cc7c(=O)n(*)c(=O)c7cc6oc5cc43)c3ccccc23)c2ccccc12 (repeat unit); 2490
*c1c(C)cc(-c2cc(C)c(N3C(=O)c4ccc(Oc5cc(C)c(Oc6ccc7c(c6)C(=O)N(*)C7=O)c(C)c5C)cc4C3=O)c(C)c2)cc1C (repeat unit); 55
*NC(=O)c1ccc(C(c2ccc(C(=O)Nc3c(C)cc4c(c3C)C3c5ccccc5C4c4cc(C)c(*)c(C)c43)cc2)(C(F)(F)F)C(F)(F)F)cc1 (repeat unit); 212

(1) *c1c(C)c(C)c(N2C(=O)c3ccc(C(c4ccc5c(c4)C(=O)N(*)C5=O)(C(F)(F)F)C(F)(F)F)cc3C2=O)c(C)c1C (repeat unit)
(2) *Oc1c(C)cc(C(C)(C)c2cc(C)c(OC(*)=O)c(C)c2)cc1C (repeat unit)
I need your help: which of the pair 1 , 2 has higher H2 permeability? Refer to your chosen item by its label in the answer.
1
(1: 434 Barrer, 2: 32 Barrer)

(a) *c1ccc(Cc2ccc(N3C(=O)c4ccc(C(=O)c5ccc6c(c5)C(=O)N(*)C6=O)cc4C3=O)cc2)cc1 (repeat unit)
(b) *Oc1cc2c(cc1O*)C1(c3cc(C)c(C)cc3-2)c2cc(C)c(C)cc2-c2cc3c(cc21)Oc1c(C#N)c(*)c(*)c(C#N)c1O3 (repeat unit)
I need your help: which of the pair a , b has higher H2 permeability? Refer to your chosen item by its label in the answer.
b
(b: 6700 Barrer, a: 4.03 Barrer)

(A) *C(=C(*)c1ccc2c(c1)C(C)(C)c1ccccc1-2)c1ccc(F)c(F)c1 (repeat unit)
(B) *c1c(C)cc(-c2cc(C)c(N3C(=O)c4ccc(Oc5cc(C(C)(C)C)c(Oc6ccc7c(c6)C(=O)N(*)C7=O)cc5C(C)(C)C)cc4C3=O)c(C)c2)cc1C (repeat unit)
// compare measured H2 permeability between A and B ; output the lower one Refer to your chosen item by its label in the answer.
B
